Kindly supply the reported activation values for the records listed here.
- Test system: Nuclear hormone receptor DAF-12 (Strongyloides stercoralis)
- experimentNotes: S. stercoralis DAF-12 nuclear receptor activators, primary screen, cell-based, luminescence, HEK293, GRIP1 co-expression, lit1-tk-luc (AID 652126);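 further: 0% = DMSO-only wells and 100% = 3 µM delta7-dafachronic acid wells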
- conditionDescription: HEK293 ssDAF-12/GRIP1 lit1-tk-luc reporter, at 6.8 µM, hits give high values, % of 3 µM dafachronic acid response
About 3,700 (1%) of roughly 370,000 compounds were called active. This is one part of a sample in which actives are shown more often than they occur.
Answers are plain numbers, in %.

Before answering, review these 5 worked examples.
compound	measurementTarget	readoutUnits	reportedValue
Clc1ccc(-c2cc(-c3ccccn3)on2)c(Cl)c1	Nuclear hormone receptor DAF-12 (Strongyloides stercoralis)	%	1.28
Nn1c(SCC(=O)Nc2nccs2)nncc1=O	Nuclear hormone receptor DAF-12 (Strongyloides stercoralis)	%	-2.06
Clc1ccc(-c2cc(C3CCNCC3)[nH]n2)c(Cl)c1	Nuclear hormone receptor DAF-12 (Strongyloides stercoralis)	%	-1.62
O=c1onc(-c2cccs2)n1Cc1ccccc1	Nuclear hormone receptor DAF-12 (Strongyloides stercoralis)	%	-1.05
NC(=O)c1c(Nc2nc3c(F)cccc3s2)sc2c1CCCC2	Nuclear hormone receptor DAF-12 (Strongyloides stercoralis)	%	1.29

Answer for every listed entry: what is its activation? The entries follow.
1. Cn1c(-c2ccco2)nc2cc3ccccc3cc21
2. COC(=O)c1c(NC(=O)COC(=O)[C@@H](NS(=O)(=O)c2ccccc2)C(C)C)sc2c1CCC2
3. O=S(=O)(Nc1ccc2nc(-c3ccco3)[nH]c2c1)c1ccccc1
4. CCOc1ccc(-n2c(SCC(=O)Nc3cc(C)c(NC(=O)c4ccccc4)cc3OC)nnc2-c2cccc(Cl)c2)cc1
5. Cc1ccc(-n2c(COc3ccccc3)nnc2SCC(=O)Nc2ccc3c(c2)OCCO3)cc1

Result:
1. 1.86
2. -1.44
3. -0.88
4. -1.5
5. -1.43
